Origin of the recorded values: patent US5250537A

system: sigma receptor ([3H](+)-3-PPP site) (Cavia porcellus, UniProt Q60492)
Construct: frozen guinea pig brains; tissue PelFreez Biologicals, Rogers, AK; host or cells: guinea pig brain membranes
Sequence (Q60492 whole entry): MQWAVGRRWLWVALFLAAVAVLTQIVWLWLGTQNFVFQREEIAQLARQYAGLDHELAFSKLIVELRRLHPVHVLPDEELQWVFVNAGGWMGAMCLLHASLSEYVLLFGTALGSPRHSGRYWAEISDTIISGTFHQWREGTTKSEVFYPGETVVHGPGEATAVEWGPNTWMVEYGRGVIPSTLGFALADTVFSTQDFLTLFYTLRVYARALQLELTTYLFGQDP
assay.method.text: In Vitro Sigma Receptor Binding, [3H](+)-3-PPP
Set-up: species or system guinea pig
condition.info: guinea pig brain; 45 minutes at 25° C.; read-out: Sigma [3H](+)-3-PPP binding IC50
Protocol: For both assays frozen guinea pig brains (PelFreez Biologicals, Rogers, AK) were thawed and homogenized in 10 volumes (w/v) of ice cold 0.32M sucrose using 10 strokes of a motor-drivenglass-fitted teflon pestle adjusted to 600 rpm. […] Binding reactions were initiated by the addition of tissue (800 μL) to tubes containing assay buffer, the radioligand (final concentration 1-3 nM) and the compound of interest. […] Radioactivity trapped on the filters was determined using routine methods. […]
measured.property: pIC50
Worth noting: pIC50 values are minus log10 of concentrations stated in mol/L.

Known results for molecules:
molecule="Fc1ccc2[nH]c3c(c2c1)C1CCCC(C3)N1 (centres unmarked) [12 F H -- H 3]" measured_property=pIC50 readout_value=6.52
molecule="Fc1ccc2[nH]c3c(c2c1)C1CCCC(C3)N1CCCCc1ccccc1 (centres unmarked) [12 F H (CH2)4 Ph 3]" measured_property=pIC50 readout_value=6.93
molecule="Fc1ccc2[nH]c3c(c2c1)C1CCC(C3)N1Cc1ccccc1 (centres unmarked) [4 F H CH2 Ph 2]" measured_property=pIC50 readout_value=6.04
molecule="c1ccc(OCCCCN2C3CCC2c2c([nH]c4ccccc24)C3)cc1 (centres unmarked) [1 H H (CH2)4 OPh 2]" measured_property=pIC50 readout_value=6.69

Kindly review the next molecule as well.
Problem: Determine its reported pIC50: O=C(CCCN1C2CCC1c1c(n(-c3ccccc3)c3ccccc13)C2)c1ccc(F)cc1 (centres unmarked) [2 H Ph (CH2)3 CO 4-FPh 2]
Result: 6.29

* * *

system: dopamine (D-2) receptors (Rattus norvegicus)
Construct: the corpus striatum was dissected and homogenized; from tissue; host or cells: rat corpus striatum membranes
assay.method.text: In Vitro Dopamine (D-2) Receptor Binding, [3H]sulpiride
condition.info: rat corpus striatum; 3 nM [3H]sulpiride; read-out: Dopamine D-2 [3H]sulpiride Ki
measured.property: pKi
Worth noting: pKi values are minus log10 of concentrations stated in mol/L.

Problem: Determine its reported pKi: Fc1ccc2[nH]c3c(c2c1)C1CCCC(C3)N1CCCCc1ccccc1 (stereo not shown) [12 F H (CH2)4 Ph 3]
Result: 5.73

Problem: Determine its reported pKi: Fc1ccc(C(=CCCN2C3CCCC2c2c([nH]c4ccc(F)cc24)C3)c2ccc(F)cc2)cc1 (stereo not shown) [12 F H (CH2)2 CHC (4-FPh)2 3]
Result: 5.43

Problem: Determine its reported pKi: c1ccc(CCN2C3CCC2c2c([nH]c4ccccc24)C3)cc1 (stereo not shown) [1 H H (CH2)2 Ph 2]
Result: 6.08

Problem: Determine its reported pKi: c1ccc(CCCCN2C3CCC2c2c(n(Cc4ccccc4)c4ccccc24)C3)cc1 (stereo not shown) [5 H Bn (CH2)4 Ph 2]
Result: 5.74

* * *

system: dopamine (D-2) receptors (Rattus norvegicus, UniProt P61169)
Construct: the corpus striatum was dissected and homogenized; from tissue; host or cells: rat corpus striatum membranes
Sequence (P61169 whole entry): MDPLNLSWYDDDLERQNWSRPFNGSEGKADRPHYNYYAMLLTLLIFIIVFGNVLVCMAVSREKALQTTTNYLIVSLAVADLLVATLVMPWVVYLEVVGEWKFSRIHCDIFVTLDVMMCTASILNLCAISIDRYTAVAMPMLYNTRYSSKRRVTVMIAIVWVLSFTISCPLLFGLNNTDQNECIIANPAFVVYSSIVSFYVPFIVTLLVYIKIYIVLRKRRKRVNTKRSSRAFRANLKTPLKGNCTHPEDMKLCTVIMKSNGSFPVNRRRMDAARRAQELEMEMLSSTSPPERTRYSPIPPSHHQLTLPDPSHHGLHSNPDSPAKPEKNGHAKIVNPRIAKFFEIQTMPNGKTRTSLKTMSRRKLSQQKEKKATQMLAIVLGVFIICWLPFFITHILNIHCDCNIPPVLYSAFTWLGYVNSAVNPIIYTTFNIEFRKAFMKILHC
assay.method.text: In Vitro Dopamine (D-2) Receptor Binding, [3H]sulpiride
condition.info: read-out: Dopamine D-2 [3H]sulpiride Ki
Catalogue of Ki readings, one per entry.
Provide the reading as a plain figure in nM.

Known results for compounds:
compound="O=C(CCCN1C2CCCC1c1c([nH]c3ccc(F)cc13)C2)c1ccc(F)cc1 (stereo not drawn)" system="dopamine (D-2) receptors (Rattus norvegicus, UniProt P61169)" measured_property=Ki quantity_unit=nM readout_value=200
compound="Fc1ccc2[nH]c3c(c2c1)C1CCC(C3)N1CCCCc1ccccc1 (stereo not drawn)" system="dopamine (D-2) receptors (Rattus norvegicus, UniProt P61169)" measured_property=Ki quantity_unit=nM readout_value=770

Kindly review the next compound as well.
Problem: Enter recorded Ki with dopamine (D-2) receptors (Rattus norvegicus, UniProt P61169) for Fc1ccc(CCCCN2C3CCC2c2c([nH]c4ccccc24)C3)cc1 (stereo not drawn) here.
Result: 1160
